- System: SK-MEL-1 (Melanoma);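 also: after 72 h of two-drug dosing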
- test: Bliss excess, mean over the matrix (fraction); higher = more synergy
outcome.measure: Bliss excess
# answer = number (no unit)

The examples below pair each entry with its known result.
• O=C(c1cc(Cc2n[nH]c(=O)c3ccccc23)ccc1F)N1CCN(C(=O)C2CC2)CC1 [Olaparib] + Cc1c2c(nn1C)CSCc1cc(n(C)n1)CSc1cc(c3ccccc3c1)OCCCc1c(C(=O)O)n(C)c3c-2c(Cl)ccc13 [AZD5991] (first compound max 10 µM, 7x7, partner max 1 µM) = -0.0301
• C[C@@H]1COCCN1c1cc(C2([S@](C)(=N)=O)CC2)nc(-c2ccnc3[nH]ccc23)n1 [AZD6738] + O=C(c1cc(Cc2n[nH]c(=O)c3ccccc23)ccc1F)N1CCN(C(=O)C2CC2)CC1 [Olaparib] (first compound max 10 µM, 7x7, partner max 10 µM) = -0.0012
• CN(C)CCCOc1ccc(-c2ccc3ncc4c(c3c2)n(C2CCOCC2)c(=O)n4C)cn1 [AZD0156] + C=CCn1c(=O)c2cnc(Nc3ccc(N4CCN(C)CC4)cc3)nc2n1-c1cccc(C(C)(C)O)n1 [AZD1775] (first compound max 1 µM, partner max 1 µM) = 0.0161

Data request: I'd like to know its Bliss excess. The compound in question is N#Cc1cnc(Nc2cc(NC[C@H]3CNCCO3)c(C(F)(F)F)cn2)cn1 [SRA737] + O=c1[nH]cc(F)c(=O)[nH]1 [5-Fluorouracil] (first compound max 10 µM, 7x7, partner max 20 µM)
Data returned: -0.0178
